method notes: Half life in Sprague-Dawley rat blood at 30 mg/kg, po by LC-MS/MS analysis
Type: ADME, organism-based
Set-up: dose 30 mg/kg, route oral
condition notes: whole blood
The compounds listed here are annotated with their half-life.
Report as a plain number; the unit h is understood.

smiles string: CC#CCn1c(N2CCC[C@@H](N)C2)nc2ccn(Cc3nc(C)c4ccccc4n3)c2c1=O
half-life, h: 4.9

Now turn to the next compound.
**Query** Query (compound): N#Cc1ccccc1Cn1c(N2CCC[C@@H](N)C2)nc2c(Br)c[nH]c2c1=O ; field requested: half-life
**Result** 2

###

method notes: Apparent clearance in Sprague-Dawley rat blood at 10 mg/kg, iv by LC-MS/MS analysis
Assay type: ADME, organism-based
Set-up: dose 10 mg/kg, route intravenous
condition notes: whole blood, read-out: CL(app) (converted)
outcome measure: clearance (mL/min/kg)
Report as a plain number; the unit mL/min/kg is understood.

**Query** Query (molecule): CC#CCn1c(N2CCC[C@@H](N)C2)nc2ccn(Cc3nc(C)c4ccccc4n3)c2c1=O ; field requested: clearance
**Result** 16.7

###

method notes: Oral bioavailability in Sprague-Dawley rat at 30 mg/kg by LC-MS/MS analysis
Assay type: ADME, organism-based
condition notes: in vivo
outcome measure: bioavailability (%)
Report as a plain number; the unit % is understood.

smiles string: CC#CCn1c(N2CCC[C@@H](N)C2)nc2ccn(Cc3nc(C)c4ccccc4n3)c2c1=O
bioavailability [%]: 82.9

Now turn to the next compound.
**Query** Query (compound): N#Cc1ccccc1Cn1c(N2CCC[C@@H](N)C2)nc2c(Br)c[nH]c2c1=O ; field requested: bioavailability
**Result** 41

###

method notes: Mean residence time (0 to infinity) in Sprague-Dawley rat blood at 30 mg/kg, po by LC-MS/MS analysis
Type: ADME, organism-based
Parameters: dose 30 mg/kg, route oral
condition notes: whole blood
outcome measure: MRT inf (h)
Report as a plain number; the unit h is understood.

**Query** Query (molecule): CC#CCn1c(N2CCC[C@@H](N)C2)nc2ccn(Cc3nc(C)c4ccccc4n3)c2c1=O ; field requested: MRT inf
**Result** 8.3

###

method notes: Apparent volume of distribution in Sprague-Dawley rat blood at 10 mg/kg, iv by LC-MS/MS analysis
Type: ADME, organism-based
Parameters: dose 10 mg/kg, route intravenous
condition notes: whole blood, read-out: Vz
outcome measure: Vd (L/kg)
Report as a plain number; the unit L/kg is understood.

**Query** Query (compound): CC#CCn1c(N2CCC[C@@H](N)C2)nc2ccn(Cc3nc(C)c4ccccc4n3)c2c1=O ; field requested: Vd
**Result** 4

###

method notes: AUC (0 to infinity) in Sprague-Dawley rat blood at 30 mg/kg, po by LC-MS/MS analysis
Type: ADME, organism-based
Set-up: time infinity, dose 30 mg/kg, route oral
condition notes: whole blood
outcome measure: AUC(0-inf)
Answer format: value, then unit.

**Query** Query (compound): CC#CCn1c(N2CCC[C@@H](N)C2)nc2ccn(Cc3nc(C)c4ccccc4n3)c2c1=O ; field requested: AUC(0-inf)
**Result** 25300 ng·h/mL
